experimentNotes: in vivo pharmacokinetics, IV
Parameters: species or system male CD-1 mice
conditionLabel: male, CD-1, mouse, plasma; IV 1 mg/kg; read-out: AUC0–24h

smilesRepresentation: Cc1[nH]c(C(=O)Nc2nc3c(N4CCOCC4)cc(C(=O)O)cc3s2)c(Cl)c1Cl
AUC(0-t) at 24 h [µg·h/mL]: 0.303

====

experimentNotes: mitochondrial toxicity glu/gal assay
Assay type: cell-based
conditionLabel: human, glucose, 600 µM; read-out: cell viability (ATP), % of control

compound: Cc1[nH]c(C(=O)Nc2nc3c(N4CCOCC4)cc(C(=O)O)cc3s2)c(Cl)c1Cl [7a]
readoutUnit: %
viability at 600 µM: 95

====

experimentNotes: physchem
Assay type: physicochemical
conditionLabel: phosphate-buffered saline (PBS), pH 7.4, PBS pH 7.4; read-out: thermodynamic solubility, Experiment 1
Class boundaries, taken from values of solubility thermodynamic at 24 h, are as follows: class 0: < 10 µM; class 1: ≥ 10 µM and < 60 µM; class 2: ≥ 60 µM

molecule: Cc1[nH]c(C(=O)Nc2nc3c(N4CCC(O)CC4)cc(C(=O)O)cc3s2)c(Cl)c1Cl
groupLabel: class 2
--
molecule: Cc1[nH]c(C(=O)Nc2nc3c(N4CCOC[C@H]4C)cc(C(=O)O)cc3s2)c(Cl)c1Cl
groupLabel: class 0
--
molecule: Cc1[nH]c(C(=O)Nc2nc3c(N4CCOC[C@@H]4C)cc(C(=O)O)cc3s2)c(Cl)c1Cl
groupLabel: class 0
--
molecule: Cc1[nH]c(C(=O)Nc2nc3c(N4CCOCC4)cc(C(=O)O)cc3s2)cc1F [16b]
groupLabel: class 2
--
molecule: Cc1[nH]c(C(=O)Nc2nc3c(N4CCC5(CC4)OCCO5)cc(C(=O)O)cc3s2)c(Cl)c1Cl
groupLabel: class 1
--
molecule: Cc1[nH]c(C(=O)Nc2nc3c(N4CCOC(C)C4)cc(C(=O)O)cc3s2)c(Cl)c1Cl (stereo not shown)
groupLabel: class 2
--
molecule: Cc1[nH]c(C(=O)Nc2nc3c(N4C[C@H]5CC[C@@H](C4)O5)cc(C(=O)O)cc3s2)c(Cl)c1Cl
groupLabel: class 0
--
molecule: Cc1[nH]c(C(=O)Nc2nc3c(N4CC(C)OC(C)C4)cc(C(=O)O)cc3s2)c(Cl)c1Cl (stereo not shown)
groupLabel: class 0
--
molecule: Cc1[nH]c(C(=O)Nc2nc3c(N4CCOCC4)cc(C(=O)O)cc3s2)cc1Cl [16a]
groupLabel: class 2
--
molecule: Cc1[nH]c(C(=O)Nc2nc3c(N4CCOC(C(F)(F)F)C4)cc(C(=O)O)cc3s2)c(Cl)c1Cl (stereo not shown)
groupLabel: class 1
--
molecule: COCC1CCCN1c1cc(C(=O)O)cc2sc(NC(=O)c3[nH]c(C)c(Cl)c3Cl)nc12 (stereo not shown)
groupLabel: class 1
--
molecule: COC[C@@H]1CCCN1c1cc(C(=O)O)cc2sc(NC(=O)c3[nH]c(C)c(Cl)c3Cl)nc12
groupLabel: class 1

====

experimentNotes: hemolysis assay
Format: cell-based
conditionLabel: human, red blood cells, pH 7.4; read-out: Haemolysis

smilesRepresentation: Cc1[nH]c(C(=O)Nc2nc3c(N4CCOCC4)cc(C(=O)O)cc3s2)c(Cl)c1Cl
hemolysis at 45 min, 100 μM [%]: 0.28

====

Reported MIC is given for each of the following compounds.
Test system: 100 A. baumannii strains (50 MDR, 50 non-MDR)
experimentNotes: MIC broth microdilution at IHMA Europe, panel of 100 strains
Format: cell-based
conditionLabel: Acinetobacter baumannii, A. baumannii IHMA 2316205, United States 2020, MDR; read-out: MIC

compound: C[C@@H](O)[C@H]1C(=O)N2C(C(=O)O)=C(SCCNC=N)C[C@H]12
MIC: > 16 µg/mL
--
compound: CN(C)c1cc(NC(=O)CNC(C)(C)C)c(O)c2c1C[C@H]1C[C@H]3[C@H](N(C)C)C(O)=C(C(N)=O)C(=O)[C@@]3(O)C(O)=C1C2=O
MIC: 4 µg/mL
--
compound: C[C@@H](O)[C@H]1C(=O)N2C(C(=O)O)=C(S[C@@H]3CN[C@H](C(=O)N(C)C)C3)[C@H](C)[C@H]12
MIC: > 16 µg/mL
--
compound: Cc1[nH]c(C(=O)Nc2nc3c(N4[C@@H]5CC[C@H]4COC5)cc(C(=O)O)cc3s2)c(Cl)c1Cl
MIC: 2 µg/mL
--
compound: CO/N=C(\C(=O)N[C@@H]1C(=O)N2C(C(=O)[O-])=C(C[N+]3(C)CCCC3)CS[C@H]12)c1csc(N)n1 [Cefepime, cefepime]
MIC: > 32 µg/mL
--
compound: O=C(O)c1cn(C2CC2)c2cc(N3CCNCC3)c(F)cc2c1=O
MIC: > 16 µg/mL
